Protocol Text: qHTS Assay for Lipid Storage Modulators: Differentiation Assay against Probe and Analogs
Particulars: 3T3-L1 adipocyte differentiation, BODIPY lipid imaging, 8 d; series mostly up to 20 µM
Records with an inconclusive call do not appear. Calls of active or inactive are those of the source. The call rests on the fitted dose curve; in most records, active means well fitted inhibition curve with a large enough effect; inconclusive means small, poorly fitted or top-dose-only effect; inactive means no such curve, though single readings can be large or run the other way.
Parameter call: string, one of 1 for active, 0 for inactive

[[record]]
compound = "CCn1c(C(=O)NCCc2ccc(OC)cc2)cc2sccc21"
category = 1

[[record]]
compound = "O=C(NC1CCCc2c1cnn2-c1cccc(O)c1)c1ccccn1 (stereo unspecified)"
category = 1

[[record]]
compound = "CC(C)Oc1ccc(CCNC(=O)c2cc3sccc3n2Cc2ccccc2)cc1OC(C)C"
category = 1


Which result was noted for this compound in the test: `CCOc1cc(CCNC(=O)c2cc3sccc3n2Cc2ccccc2)cc(F)c1OCC`
1

# outcome recorded in this test, key = `CCOc1cc(F)c(CCNC(=O)c2cc3sccc3n2Cc2ccccc2)cc1OCC`
0

Hey, what did the test say about `CCOc1ccc(CCNC(=O)c2ccc3ccccc3n2)cc1OCC` ?
0

Each recorded value in this set is attributed to PubChem BioAssay AID652183.
